Target: UniProt:P23443
Sequence (P23443 whole entry): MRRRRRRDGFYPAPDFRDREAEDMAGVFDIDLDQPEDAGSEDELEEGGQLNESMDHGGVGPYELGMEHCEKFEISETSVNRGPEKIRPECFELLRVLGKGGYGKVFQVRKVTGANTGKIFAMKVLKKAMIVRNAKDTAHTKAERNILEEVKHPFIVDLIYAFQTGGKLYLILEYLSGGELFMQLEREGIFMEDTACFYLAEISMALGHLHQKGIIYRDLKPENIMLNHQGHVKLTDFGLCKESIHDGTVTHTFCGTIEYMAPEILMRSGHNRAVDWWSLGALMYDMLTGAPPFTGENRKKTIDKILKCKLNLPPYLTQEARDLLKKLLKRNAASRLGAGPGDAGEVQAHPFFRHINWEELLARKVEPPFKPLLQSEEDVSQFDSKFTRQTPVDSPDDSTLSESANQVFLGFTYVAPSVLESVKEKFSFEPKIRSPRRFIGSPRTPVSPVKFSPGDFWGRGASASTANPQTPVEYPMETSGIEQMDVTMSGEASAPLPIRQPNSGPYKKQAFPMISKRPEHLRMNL
quantity: IC50 (µM)

{"smiles-string": "CN1C(=O)C(c2c[nH]c3ccccc23)=C(c2cn(CCCN)c3ccccc23)C1=O", "readout-unit": "µM", "reading": 25}

Hello, the source for this data is ChEMBL document CHEMBL1139630, in case you need it.
